Test: chemical genetic growth profiling, strain panel (AID 1159580);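 also: tested at 20 µM; growth read once vehicle control cultures reached saturation at 30 °C; 1 = growth at the plate median or of vehicle wells; lower values mean less growth of the strain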
Settings: S. cerevisiae deletion strains, growth OD, locus YNL209W, strain ssb2, active compounds read low
Screen size: about 5,500 compounds; about 2,000 (36%) were called active. About 18% were inconclusive and are not listed. This is one part of the list.
Attribute Measured: normalized growth
Give only the figure.

Take a look at these entries with their results.
Compound: COc1cc(O)c(C(=O)/C=C/c2ccc(OC)c(O)c2)c(OC)c1
normalized growth: 1.01
//
Compound: CC(C(=O)O)c1cccc(C(=O)c2ccccc2)c1 (centres undefined)
normalized growth: 0.999
//
Compound: C[C@]12CCC(=O)C=C1CCC1C2CC[C@@]2(C)C1CC[C@@H]2O (some centres undefined)
normalized growth: 1.01
//
Compound: Oc1cc(Cl)ccc1Oc1ccc(Cl)cc1Cl
normalized growth: 0.0563
//
Compound: CC(=O)OCC(=O)[C@H]1CCC2C3CCC4=CC(=O)CC[C@]4(C)C3CC[C@@]21C (some centres undefined)
normalized growth: 0.979
//
Compound: CCOC(=O)C(Cc1ccc(O)cc1)NC(C)=O (centres undefined)
normalized growth: 0.996

Returns the measured normalized growth for the input compound. Input: CC(=O)OC(C)(C)[C@@H]1Cc2cc3ccc(=O)oc3cc2O1
0.975

Query ClC1=C(Cl)C2(Cl)C3C(Cl)C=CC3C1(Cl)C2(Cl)Cl (centres undefined) next
0.997

Query COc1ccc2cc([C@H](C)C(=O)O)ccc2c1 next
0.978

Query CN1CCC(=C2c3ccccc3CC(=O)c3sccc32)CC1 next
0.988

Query CCOC(=O)c1c(C)c(Cl)c(O)c(Cl)c1O next
0.753

Query COc1cc(O)c(C(=O)/C=C/c2ccccc2)c(OC)c1 next
0.95

Query COc1cc(/C=C/C(=O)/C=C(O)/C=C/c2ccc(O)c(OC)c2)ccc1O next
0.0983

Query CC(NCCc1ccc(O)cc1)C(O)c1ccc(O)cc1 (centres undefined) next
0.961

Query CC(C)(O)[C@@H]1[C@H]2OC(=O)[C@@H]1[C@]1(O)C[C@H]3O[C@]34C(=O)O[C@H]2[C@]14C next
1.01

Query CC(=O)O[C@@H]1C[C@@]2(C)C(CC[C@@H]2C(C)=O)C2CCC3=CC(=O)CC[C@]3(C)C21 (some centres undefined) next
1

Query CC(C[N+](C)(C)C)OC(N)=O (centres undefined) next
1.03

Query COc1ccc2c(c1OC)C(=O)O[C@H]2[C@H]1c2cc3c(cc2CCN1C)OCO3 next
1

Query CC(N)CCCC(C)(C)O (centres undefined) next
0.976

Query NC(=O)c1ccc[n+]([C@@H]2O[C@H](COP(=O)([O-])OP(=O)(O)OC[C@H]3O[C@@H](n4cnc5c(N)ncnc54)[C@H](O)[C@@H]3O)[C@@H](O)[C@H]2O)c1 next
1.04

Query CC(=O)OCC(=O)[C@@]1(O)CCC2C3CCC4=CC(=O)CC[C@]4(C)C3C(=O)C[C@@]21C (some centres undefined) next
0.998

Query CO[C@H]1[C@H](O)[C@H](O[C@H]2CC[C@]3(C)C4CC[C@]5(C)C(C6=CC(=O)OC6)CC[C@]5(O)C4CC[C@@H]3C2)O[C@@H](C)[C@@H]1O (some centres undefined) next
0.985

Query CS(=O)(=O)c1ccc(C2=C(c3ccccc3)C(=O)OC2)cc1 next
0.951

Query O=C(O)c1cc2ccccc2[nH]1 next
0.984
